Listed binders paired with reported pKd
molecular target: T1, recombinant human PD-L1 (human, UniProt Q9NZQ7 19-238); assay: SPR (ProteOn XPR36), antibody captured on Protein A, human PD-L1 as analyte, 1:1 Langmuir fit
T1 construct: the whole natural entry is named
T1 sequence (Q9NZQ7 19-238 limits assumed): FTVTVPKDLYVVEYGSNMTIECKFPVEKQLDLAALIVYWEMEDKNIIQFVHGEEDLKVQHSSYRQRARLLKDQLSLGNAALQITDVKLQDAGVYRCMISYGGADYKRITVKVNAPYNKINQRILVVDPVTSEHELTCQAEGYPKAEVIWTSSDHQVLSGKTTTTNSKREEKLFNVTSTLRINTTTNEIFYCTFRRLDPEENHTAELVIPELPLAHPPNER
pKd: −log10 of the molar value.

binder	pKd
2.74.15.hAb7 (antibody, V domains shown, Humanized antibody with a human constant region of IgG4 isotype) VH: QVQLQESGPGLVKPSETLSLTCTVSGYSITSGYIWHWIRQPPGKGLEWIGYIHYSGTTDFNPSLESRVTISVDTSKNQFSLKLSSVTAADTAVYYCAREGRSYGGFAYWGQGTLVTVSS VL: DIQLTQSPSFLSASVGDRVTITCKASQSVSNGVAWYQQKPGKAPKLLIYYASNRFTGVPSRFSGSGSGTEFTLTISSLQPEDFATYYCQQDYSSPFTFGQGTKLEIK	9.81
2.74.15.hAb8 (antibody, V domains shown, Humanized antibody with a human constant region of IgG4 isotype) VH: QVQLQESGPGLVKPSETLSLTCTVSGYSITSGYIWHWIRQPPGKGLEWIGYIHYSGTTDFNPSLESRVTISVDTSKNQFSLKLSSVTAADTAVYYCAREGRSYGGFAYWGQGTLVTVSS VL: DIQMTQSPSSLSASVGDRVTITCKASQSVSNGVAWYQQKPGKVPKLLIYYASNRFTGVPSRFSGSGSGTDFTLTISSLQPEDVATYYCQQDYSSPFTFGQGTKLEIK	10.17
2.74.15.hAb6 (antibody, V domains shown, Humanized antibody with a human constant region of IgG4 isotype) VH: QVQLQESGPGLVKPSETLSLTCTVTGYSITSGYIWHWIRQPAGKGLEWIGYIHYSGTTDFNPSLESRVTISVDTSKNQFSLKLSSVTAADTAVYYCAREGRSYGGFAYWGQGTLVTVSS VL: DIQMTQSPSSLSASVGDRVTITCKASQSVSNGVAWYQQKPGKVPKLLIYYASNRFTGVPSRFSGSGSGTDFTLTISSLQPEDVATYYCQQDYSSPFTFGQGTKLEIK	9.83
2.74.15.hAb5 (antibody, V domains shown, Humanized antibody with a human constant region of IgG4 isotype) VH: QVQLQESGPGLVKPSETLSLTCTVTGYSITSGYIWHWIRQPAGKGLEWIGYIHYSGTTDFNPSLESRVTISVDTSKNQFSLKLSSVTAADTAVYYCAREGRSYGGFAYWGQGTLVTVSS VL: DIQLTQSPSFLSASVGDRVTITCKASQSVSNGVAWYQQKPGKAPKLLIYYASNRFTGVPSRFSGSGSGTEFTLTISSLQPEDFATYYCQQDYSSPFTFGQGTKLEIK	9.97
2.74.15.hAb4 (antibody, V domains shown, Humanized antibody with a human constant region of IgG4 isotype) VH: QVQLQESGPGLVKPSETLSLTCTVSGYSITSGYIWHWIRQPPGKGLEWIGYIHYSGTTDFNPSLESRVTISVDTSKNQFSLKLSSVTAADTAVYYCAREGRSYGGFAYWGQGTLVTVSA VL: SFVMTQSPSSLSASVGDRVTITCKASQSVSNGVAWYQQKPGKVPKLLIYYASNRFTGVPSRFSGSGSGTDFTLTISSLQPEDVATYYCQQDYSSPFTFGSGTELEIK	10.41
